Biological target: Recombinant human renin (Homo sapiens)
Construct: isolate the active form (residues 67-406); made in house; host or cells: FreeStyle 293-F cells (transient expression of pcDNA3.1(+)/hREN)
Assay: In vitro enzymatic activity assay of renin inhibitors (fluorogenic peptide substrate)
Format: biochemical
Details: read-out: IC50 of Exemplified Compounds Against Renin
attribute measured: IC50

Below: 2 molecules and their reported IC50.
- structure: "COCCCn1c([C@@H]2CCCN(C(=O)[C@@H]3CN(C(=O)Nc4ccccc4OC)C[C@H]3N)C2)nc2ccccc21"
  IC50: "> 1000 nM"
- structure: "CC(=O)NCCn1c([C@@H]2CCCN(C(=O)C[C@H](N)Cc3ccc(-c4ccc5c(c4)OCCO5)cc3)C2)nc2ccccc21"
  IC50: "100 to 1000 nM"

The record that follows has no IC50 shown yet.
`CC(=O)NCCn1c([C@@H]2CCCN(C(=O)C[C@H](N)Cc3ccc(-c4cnc(N)nc4)cc3)C2)nc2c(C)cccc21` on Recombinant human renin (Homo sapiens) gives IC50 = 100 to 1000 nM

---

Molecular target: Recombinant human renin (Homo sapiens)
Construct: isolate the active form (residues 67-406); made in house; host or cells: FreeStyle 293-F cells (transient expression of pcDNA3.1(+)/hREN)
Assay: In vitro enzymatic activity assay of renin inhibitors (fluorogenic peptide substrate)
Format: biochemical
Settings: read-out: IC50 of Exemplified Compounds Against Renin
Description: Test compounds in varying concentrations may be reacted with recombinant human renin in the presence of substrate, e.g., QXL520-γ-Abu-[…](HiLyteFluo488)-Arg-OH (Anaspec, San Jose, Calif.). […] Inhibition constants (IC50) may be calculated by non-linear curve fitting of the compound concentrations and fluorescence intensities to the standard IC50 equation. […] The fluorescence intensity is determined upon the addition of substrate and determined again after incubation at 37° C. for one hour. […]
pIC50: −log10 of the molar value.
attribute measured: pIC50

Worked examples, 2 compounds total:
- compound: "COCCCn1c([C@@H]2CCCN(C(=O)[C@@H]3CN(S(=O)(=O)c4c(Cl)cc(Cl)cc4Cl)C[C@H]3N)C2)nc2ccccc21 [Compound 340]"
  experimental system: "Recombinant human renin (Homo sapiens)"
  pIC50: "6.00 to 7.00"
- compound: "COCCCn1c([C@@H]2CCCN(C(=O)[C@@H]3CN(S(=O)(=O)c4cccc(-c5noc(C)n5)c4)C[C@H]3N)C2)nc2ccccc21 [Compound 409]"
  experimental system: "Recombinant human renin (Homo sapiens)"
  pIC50: "< 6.00"

# compound CNC(=O)Nc1ccc(-c2ccc(C[C@@H](N)CC(=O)N3CCC[C@@H](c4nc5ccccc5n4CCCOC)C3)cc2)cc1 [Compound 175] ; its pIC50 = > 7.00

Lab book: pIC50 of COCCCn1c([C@@H]2CCCN(C(=O)C[C@H](N)Cc3ccccc3)C2)nc2ccccc21 [Compound 87] noted as 6.00 to 7.00

Sure, the documented pIC50 for COCCCn1c([C@@H]2CCCN(C(=O)C[C@H](N)CNS(=O)(=O)c3ccc(Cl)cc3)C2)nc2ccccc21 [Compound 281] is 6.00 to 7.00

Lab book: pIC50 of N[C@@H](CC(=O)N1CCCC(c2nc3ccccc3[nH]2)C1)c1ccccc1[N+](=O)[O-] (some centres unmarked) [Compound 26] noted as < 6.00

Form: compound = COCCCn1c([C@@H]2CCCN(C(=O)C[C@H](N)CNC(=O)c3ccc(-c4cccc(Cl)c4)o3)C2)nc2ccccc21 [Compound 296] ; pIC50 = 6.00 to 7.00

Form field pIC50, entry COCCCn1c([C@@H]2CCCN(C(=O)[C@@H]3CN(C(=O)c4ccc(Cl)c(Cl)c4)C[C@H]3N)C2)nc2ccccc21 [Compound 365] : 6.00 to 7.00

What the record says about COCCCn1c([C@@H]2CCCN(C(=O)C[C@H](N)COCc3ccccc3)C2)nc2ccccc21 [Compound 88] : pIC50 is < 6.00

---

Target: Recombinant human renin (Homo sapiens)
Construct: isolate the active form (residues 67-406); made in house; host or cells: FreeStyle 293-F cells (transient expression of pcDNA3.1(+)/hREN)
Sequence (P00797 67-406): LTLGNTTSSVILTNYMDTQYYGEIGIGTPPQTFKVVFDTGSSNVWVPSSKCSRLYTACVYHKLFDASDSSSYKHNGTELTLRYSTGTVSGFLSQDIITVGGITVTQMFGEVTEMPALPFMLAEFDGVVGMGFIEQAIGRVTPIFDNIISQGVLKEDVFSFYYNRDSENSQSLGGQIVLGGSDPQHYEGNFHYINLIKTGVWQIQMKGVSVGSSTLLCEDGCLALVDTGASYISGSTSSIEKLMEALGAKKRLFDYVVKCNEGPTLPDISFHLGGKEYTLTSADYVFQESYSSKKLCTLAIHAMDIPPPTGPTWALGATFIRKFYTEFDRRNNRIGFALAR
Test: In vitro enzymatic activity assay of renin inhibitors (fluorogenic peptide substrate)
Format: biochemical
Conditions: read-out: IC50 of Exemplified Compounds Against Renin
Method: Test compounds in varying concentrations may be reacted with recombinant human renin in the presence of substrate, e.g., QXL520-γ-Abu-[…](HiLyteFluo488)-Arg-OH (Anaspec, San Jose, Calif.). […] Inhibition constants (IC50) may be calculated by non-linear curve fitting of the compound concentrations and fluorescence intensities to the standard IC50 equation. […] The fluorescence intensity is determined upon the addition of substrate and determined again after incubation at 37° C. for one hour. […]
pIC50: −log10 of the molar value.
Listed next: entries and their corresponding pIC50.

Given the molecule COCCCn1c(C2CCCN(C(=O)C[C@H](N)Cc3ccc4ccccc4c3)C2)nc2ccc(Cl)nc21 (stereo partly drawn) and test system Recombinant human renin (Homo sapiens), the measured pIC50 is < 6.00

---

Listed below: IC50 values for each entry.
Molecular target: Recombinant human renin (Homo sapiens)
Construct: isolate the active form (residues 67-406); made in house; host or cells: FreeStyle 293-F cells (transient expression of pcDNA3.1(+)/hREN)
Sequence (P00797 67-406): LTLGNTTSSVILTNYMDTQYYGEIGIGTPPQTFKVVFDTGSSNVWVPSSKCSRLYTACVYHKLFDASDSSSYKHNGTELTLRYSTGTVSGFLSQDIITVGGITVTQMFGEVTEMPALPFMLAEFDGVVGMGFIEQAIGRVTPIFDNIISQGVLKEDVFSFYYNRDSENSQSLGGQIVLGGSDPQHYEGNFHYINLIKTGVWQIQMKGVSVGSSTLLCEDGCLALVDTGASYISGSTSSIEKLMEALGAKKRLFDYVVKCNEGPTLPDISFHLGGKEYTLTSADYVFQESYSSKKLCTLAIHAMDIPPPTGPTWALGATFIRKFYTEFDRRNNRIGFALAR
Assay: In vitro enzymatic activity assay of renin inhibitors (fluorogenic peptide substrate)
Format: biochemical
Settings: read-out: IC50 of Exemplified Compounds Against Renin

Examples with answers:
- compound: "COCCCn1c([C@@H]2CCCN(C(=O)[C@@H]3CN(C(=O)Nc4cccc(Cl)c4)C[C@H]3N)C2)nc2ccccc21"
  IC50: "100 to 1000 nM"
- compound: "COCCCn1c([C@@H]2CCCN(C(=O)C[C@H](N)Cc3ccc(-c4ccnc(O)c4)cc3)C2)nc2ccccc21"
  IC50: "< 100 nM"
- compound: "Cc1cc(C)cc(NC(=O)N2CCCC(c3nc4ccccc4[nH]3)C2)c1 (stereo not shown)"
  IC50: "> 1000 nM"

Let us move to another entry and its IC50.
// IC50 value for `COCCCn1c([C@@H]2CCCN(C(=O)C[C@H](N)Cc3ccc(-c4ccc(N)nc4)cc3)C2)nc2ccccc21` : < 100 nM

---

// IC50 lookup, one value per entry
Molecular target: Recombinant human renin (Homo sapiens, UniProt P00797)
Construct: isolate the active form (residues 67-406); made in house; host or cells: FreeStyle 293-F cells (transient expression of pcDNA3.1(+)/hREN)
Test: In vitro enzymatic activity assay of renin inhibitors (fluorogenic peptide substrate)
Assay type: biochemical
Conditions: read-out: IC50 of Exemplified Compounds Against Renin

- molecule: "CC(=O)NCCn1c([C@@H]2CCCN(C(=O)C[C@H](N)Cc3ccc(-c4ccc(N)nc4)cc3)C2)nc2ccccc21 [Compound 446]"
  experimental system: "Recombinant human renin (Homo sapiens, UniProt P00797)"
  result value: "0.1 to 1 µM"
- molecule: "COCCCn1c([C@@H]2CCCN(C(=O)C[C@H](N)Cc3ccc(-c4cccc(OC)c4)cc3)C2)nc2ccccc21 [Compound 158]"
  experimental system: "Recombinant human renin (Homo sapiens, UniProt P00797)"
  result value: "< 0.1 µM"
- molecule: "O=C(C1CNC1)N1CCCC(c2nc3ccccc3[nH]2)C1 (stereo not shown) [Compound 55]"
  experimental system: "Recombinant human renin (Homo sapiens, UniProt P00797)"
  result value: "> 1 µM"
- molecule: "O=C(C1CCCNC1)N1CCCC(c2nc3ccccc3[nH]2)C1 (stereo not shown) [Compound 52]"
  experimental system: "Recombinant human renin (Homo sapiens, UniProt P00797)"
  result value: "> 1 µM"

Kindly note the recorded IC50 for COCCCn1c([C@@H]2CCCN(C(=O)C[C@@H](N)COc3cccc(OC)c3)C2)nc2ccccc21 [Compound 433] , which is > 1 µM

Lab book: IC50 of N[C@@H](CC(=O)N1CCCC(c2nc3ccccc3[nH]2)C1)c1cccc(Cl)c1Cl (stereo partly shown) [Compound 37] noted as > 1 µM

Input COCCCn1c([C@@H]2CCCN(C(=O)C[C@H](N)CNC(=O)c3cccc(OC)c3)C2)nc2ccccc21 [Compound 310] . Output IC50: 0.1 to 1 µM

// IC50 lookup, molecule = CN1CCOc2cc(-c3ccc(C[C@@H](N)CC(=O)N4CCC[C@@H](c5nc6ccccc6n5CCC(N)=O)C4)cc3)ccc21 [Compound 447] , result: 0.1 to 1 µM

Notebook: COCCCn1c([C@@H]2CCCN(C(=O)[C@@H]3CN(S(=O)(=O)c4ccc(OC)c(OC)c4)C[C@H]3N)C2)nc2ccccc21 [Compound 372] , IC50 read as 0.1 to 1 µM

The molecule COCCCn1c([C@@H]2CCCN(C(=O)C[C@H](N)Cc3ccc(N4CCC(O)CC4)cc3)C2)nc2ccccc21 [Compound 234] showed IC50 equal to > 1 µM

For reference, reported IC50 for COCCCn1c([C@@H]2CCCN(C(=O)C[C@H](N)CNC(=O)N3CCOCC3)C2)nc2ccccc21 [Compound 328] stands at > 1 µM

For this molecule ( COCCCn1c([C@@H]2CCCN(C(=O)C[C@H](N)Cc3ccc(-c4ccc(C(=O)NCCOC(C)C)cc4)cc3)C2)nc2ccccc21 [Compound 179] ), measured IC50 is < 0.1 µM

Field IC50 (entry COCCCn1c([C@@H]2CCCN(C(=O)[C@@H]3CN(S(=O)(=O)c4cc(Cl)c(Cl)cc4Cl)C[C@H]3N)C2)nc2ccccc21 [Compound 345] ) reads 0.1 to 1 µM

Reported IC50 of COCCCn1c([C@@H]2CCCN(C(=O)C[C@H](N)CNC(=O)Nc3ccccc3OC(F)(F)F)C2)nc2ccccc21 [Compound 265] : 0.1 to 1 µM

Measured IC50, COCCCn1c([C@@H]2CCCN(C(=O)[C@@H]3CN(S(=O)(=O)c4cc(Cl)ccc4Cl)C[C@H]3N)C2)nc2ccccc21 [Compound 343] : 0.1 to 1 µM

Please fill in: IC50 reported for CC(=O)NCCn1c([C@@H]2CCCN(C(=O)C[C@H](N)Cc3ccc4ccccc4c3)C2)nc2ccccc21 [Compound 239] = 0.1 to 1 µM

Recorded IC50 (molecule CC(=O)NCCn1c([C@@H]2CCCN(C(=O)C[C@H](N)Cc3ccc(-c4ccc5c(c4)SCC(=O)O5)cc3)C2)nc2ccccc21 [Compound 464] ): < 0.1 µM

Documented IC50 of COCCCn1c([C@@H]2CCCN(C(=O)C[C@H](N)Cc3ccc(-c4ccc5nccn5c4)cc3)C2)nc2ccccc21 [Compound 139] : < 0.1 µM
